Assay: chemical genetic growth profiling, strain panel (AID 1159580);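 also: tested at 20 µM; growth read once vehicle control cultures reached saturation at 30 °C; 1 = growth at the plate median or of vehicle wells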
Details: S. cerevisiae deletion strains, growth OD, locus YIL147C, strain SLN1, stronger effect = lower value
Among all 5,500 compounds or so, about 2,000 (36%) were called active. Not shown: some 18% with an inconclusive outcome. This is one part of the list.

Compound | normalized growth
Clc1cccc(Nc2ncc(-c3ccc4c(c3)OCCCO4)s2)c1 | 0.973
Clc1ccccc1-c1csc(-c2cccnc2)n1 | 0.922
Cc1ccc(S(=O)(=O)Nc2nc(-c3ccc(C)c(Cl)c3)c(C)s2)cc1 | 0.983
CC1C(c2ccccc2)N(C)C(c2ccccc2)CC1(O)c1ccc(F)cc1 (stereo unspecified) | 1
Cc1ccc(-c2nc(NS(=O)(=O)c3cccc4nonc34)sc2C)cc1Cl | 0.972
CN(C)c1ccc(/C=C/c2ccc3ccccc3[n+]2C)cc1 | 0.959

---

Assay: chemical genetic growth profiling, strain panel (AID 1159580);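 also: tested at 20 µM; growth read once vehicle control cultures reached saturation at 30 °C; 1 = growth at the plate median or of vehicle wells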
Conditions: S. cerevisiae deletion strains, growth OD, locus YOR070C, strain gyp1, stronger effect = lower value
Out of some 5,500 compounds screened, about 2,000 (36%) were called active. Another 18% or so got no clear call; they are omitted. The list shows a part of the results.
# normalized growth listing for each entry below
Outcome Measure: normalized growth

Compound | Outcome Measure | Recorded Number
CC(=O)O[C@@H]1CC2C(C)(C)[C@@H](O)CC[C@]2(C)C2CC[C@@]3(C)[C@H](c4ccoc4)OC(=O)[C@H]4O[C@]43[C@@]21C (stereo not given in full) | normalized growth | 0.988
CCC(=O)OC1[C@@H]2CC3=C4CC(=O)O[C@@H](c5ccoc5)[C@]4(C)CCC3[C@@](C)(C2=O)[C@@H](CC(=O)OC)C1(C)C (stereo not given in full) | normalized growth | 0.988
CN(C)C(=O)Oc1ccc[n+](C)c1 | normalized growth | 1
CC(=O)O[C@@H]1CC2C(C)(C)[C@H](O)C=C[C@]2(C)C2CC[C@@]3(C)[C@H](c4ccoc4)OC(=O)C4OC43[C@@]21C (stereo not given in full) | normalized growth | 1.02
COc1cc(C)c2c(=O)cc(-c3ccccc3)oc2c1 | normalized growth | 0.93

---

Assay: chemical genetic growth profiling, strain panel (AID 1159580);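 also: tested at 20 µM; growth read once vehicle control cultures reached saturation at 30 °C; 1 = growth at the plate median or of vehicle wells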
Conditions: S. cerevisiae strains, growth OD, strain wild type
The campaign covered roughly 5,500 compounds. About 2,000 (36%) were called active. Another 18% or so got no clear call; they are omitted. No stated cut-off is given here; in the data, active means normalized growth mostly below about 0.91 (no sharp cut-off); inconclusive means no clear call, values can overlap the other calls; inactive means mostly above about 0.92. This is one part of the list.
Labels: active, inactive

Compound | Label
NC(=O)NC1NC(=O)NC1=O (stereo unspecified) | inactive
COC(=O)c1cscc1Sc1ccc(Cl)cc1 | inactive
C=NC(C(=O)NC1C(=O)N2C1SC(C)(C)C2C(=O)O)c1ccccc1 (stereo unspecified) | inactive
CCC(C)C(=O)c1c(O)c(C)c2oc3c(C)c(O)c(C(=O)C(C)CC)c(O)c3c2c1O (stereo unspecified) | inactive
Cc1onc(-c2ccccc2)c1-c1ccc(S(N)(=O)=O)cc1 | inactive
Cc1cc(/C=C/c2ccc3cc(N(C)C)ccc3[n+]2C)c(C)n1-c1ccccc1 | active

---

Assay: chemical genetic growth profiling, strain panel (AID 1159580);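 also: tested at 20 µM; growth read once vehicle control cultures reached saturation at 30 °C; 1 = growth at the plate median or of vehicle wells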
Conditions: S. cerevisiae deletion strains, growth OD, locus YLR357W, strain rsc2, stronger effect = lower value
Among all 5,500 compounds or so, about 2,000 (36%) were called active. Not shown: some 18% with an inconclusive outcome. The list shows a part of the results.
Just a reminder that ties go to not fulfilled: only normalized growth strictly below 1 counts as fulfilled.

Compound | Label
CC(=O)O[C@H]1CC[C@@]2(C)C(C[C@@H](OC(C)=O)[C@]3(C)C2CC[C@@]2(C)[C@H](c4ccoc4)OC(=O)[C@H]4O[C@]423)C1(C)C (some centres not stated) | fulfilled
CC(=O)O[C@@H]1CC2C(C)(C)[C@@H](O)CC[C@]2(C)C2CC[C@@]3(C)[C@H](c4ccoc4)OC(=O)[C@H]4O[C@]43[C@@]21C (some centres not stated) | not fulfilled
CC1CCC(NC(=O)N(CCCl)N=O)CC1 (configuration not stated) | fulfilled
CC(=O)Oc1c2c(c(CC=C(C)C)c3c1C(=O)C1=C[C@@H]4CC5C(C)(C)OC(C/C=C(\C)C(=O)O)(C4=O)[C@@]15O3)OC(C)(CCC=C(C)C)C=C2 (some centres not stated) | not fulfilled
CC1(C)C(=O)[C@@H]2O[C@@H]2[C@@]2(C)C1C[C@@H](O)[C@]1(C)C2CC[C@@]2(C)[C@H](c3ccoc3)OC(=O)C3OC321 (some centres not stated) | fulfilled
Clc1ccc(COC(Cn2ccnc2)c2ccc(Cl)cc2Cl)c(Cl)c1 (configuration not stated) | fulfilled
COC(=O)[C@H](c1ccccc1Cl)N1CCc2sccc2C1 | not fulfilled
CCCNC(=O)NS(=O)(=O)c1ccc(Cl)cc1 | not fulfilled
CC(=O)O[C@@H]1CC2C(C)(C)[C@H](O)C=C[C@]2(C)C2CC[C@@]3(C)[C@H](c4ccoc4)OC(=O)C4OC43[C@@]21C (some centres not stated) | not fulfilled
C[C@@H]1CC[C@H]2C(C)(C)C3CC12CC[C@@]3(C)O (some centres not stated) | fulfilled
CC1OC(O[C@H]2/C=C/C=C/C=C/C=C/C=C/C=C/C=C/[C@H](C)[C@@H](O)[C@@H](C)[C@H](C)OC(=O)CC(O)CC(O)CCC(O)C(O)CC(O)C[C@]3(O)C[C@H](O)C(C(=O)O)C(C2)O3)C(O)[C@H](N)C1O (some centres not stated) | fulfilled
Clc1ccc(CO/N=C(/Cn2ccnc2)c2ccc(Cl)cc2Cl)c(Cl)c1 | fulfilled
Cc1cc(/C=C/c2ccc3cc(N(C)C)ccc3[n+]2C)c(C)n1-c1ccccc1 | not fulfilled
CCC(C)C(=O)c1c(O)c(C)c2oc3c(C)c(O)c(C(=O)C(C)CC)c(O)c3c2c1O (configuration not stated) | fulfilled
COc1ccc(-c2oc3cc(OC)c(OC)c(OC)c3c(=O)c2OC)cc1OC | fulfilled
Cc1onc(-c2ccccc2)c1-c1ccc(S(N)(=O)=O)cc1 | not fulfilled
O=C1CCCN1CC#CCN1CCCC1 | not fulfilled
